// IC50 lookup, one value per entry
biological target: human PDHK2 (hPDHK2) (Homo sapiens (Human)); assay: Inhibitory action of PDHK activity in vitro (kinase reaction, residual PDH activity measured); format: biochemical; details: read-out: PDHK inhibitory activity IC50
measured-endpoint: IC50

- compound: "COC(=O)c1cccc2c1-c1ccc(F)cc1C2(O)C(F)(F)F (stereo not drawn)"
  measured-endpoint: "IC50"
  readout-value: "> 10 µM"
- compound: "O=C(O)CCn1cc(-c2ccc3c(c2)C(O)(C(F)(F)F)c2cccc(CO)c2-3)cn1 (stereo not drawn)"
  measured-endpoint: "IC50"
  readout-value: "> 1 µM"
- compound: "COc1cc(CO)c2c(c1)C(O)(C(F)(F)F)c1ccccc1-2 (stereo not drawn)"
  measured-endpoint: "IC50"
  readout-value: "> 1 µM"

---

// IC50 lookup, one value per entry
target: human PDHK2 (hPDHK2) (Homo sapiens (Human), UniProt Q15119); experiment: Inhibitory action of PDHK activity in vitro (kinase reaction, residual PDH activity measured); type: biochemical; conditions: PDHK inhibitory activity (class symbol)
measured-endpoint: IC50

- compound: "NC(=O)c1cc(-c2cnn(CC3CCCCC3)c2)cc2c1-c1ccccc1C2(O)C(F)(F)F (stereo not drawn) [compound 662]"
  measurement-target: "human PDHK2 (hPDHK2) (Homo sapiens (Human), UniProt Q15119)"
  readout-value: "< 100 nM"
- compound: "CC(CO)(CO)n1cc(-c2cc(F)cc3c2-c2ccccc2C3(O)C(F)(F)F)cn1 (single isomer, unassigned; (+))"
  measurement-target: "human PDHK2 (hPDHK2) (Homo sapiens (Human), UniProt Q15119)"
  readout-value: "< 100 nM"
- compound: "NC(=O)c1cc(-c2cnn(CC3CCCCC3)c2)cc2c1-c1ccccc1C2(O)C(F)(F)F (single isomer, unassigned) [compound 667]"
  measurement-target: "human PDHK2 (hPDHK2) (Homo sapiens (Human), UniProt Q15119)"
  readout-value: "< 100 nM"
- compound: "CC[Si](CC)(CC)CCc1cc(C(N)=O)c2c(c1)C(O)(C(F)(F)F)c1ccccc1-2 (stereo not drawn)"
  measurement-target: "human PDHK2 (hPDHK2) (Homo sapiens (Human), UniProt Q15119)"
  readout-value: "100 to 1000 nM"
- compound: "CC(C)Cc1cc(-c2cnn(C(CO)CO)c2)c2c(c1)C(O)(C(F)(F)F)c1ccccc1-2 (stereo not drawn) [compound 648]"
  measurement-target: "human PDHK2 (hPDHK2) (Homo sapiens (Human), UniProt Q15119)"
  readout-value: "< 100 nM"
- compound: "CC(C)(O)Cn1cc(-c2cc(F)cc3c2-c2ccccc2C3(O)C(F)(F)F)cn1 (single isomer, unassigned)"
  measurement-target: "human PDHK2 (hPDHK2) (Homo sapiens (Human), UniProt Q15119)"
  readout-value: "< 100 nM"
- compound: "OCC(CO)(CO)n1cc(-c2cccc3c2-c2ccccc2C3(O)C(F)(F)F)cn1 (single isomer, unassigned)"
  measurement-target: "human PDHK2 (hPDHK2) (Homo sapiens (Human), UniProt Q15119)"
  readout-value: "< 100 nM"
- compound: "Cc1cc(-c2cnn(CC(CO)CO)c2)c2c(c1)C(O)(C(F)(F)F)c1ccccc1-2 (single isomer, unassigned)"
  measurement-target: "human PDHK2 (hPDHK2) (Homo sapiens (Human), UniProt Q15119)"
  readout-value: "< 100 nM"
- compound: "OCCn1cc(-c2cc(CO)cc3c2-c2ccccc2C3(O)C(F)(F)F)cn1 (stereo not drawn)"
  measurement-target: "human PDHK2 (hPDHK2) (Homo sapiens (Human), UniProt Q15119)"
  readout-value: "< 100 nM"
- compound: "OCCCCOc1cc(-c2cnn(CCO)c2)c2c(c1)C(O)(C(F)(F)F)c1ccccc1-2 (single isomer, unassigned)"
  measurement-target: "human PDHK2 (hPDHK2) (Homo sapiens (Human), UniProt Q15119)"
  readout-value: "< 100 nM"
- compound: "OCCn1cc(-c2cc(CO)c3c(c2)C(O)(C(F)(F)F)c2ccccc2-3)cn1 (stereo not drawn)"
  measurement-target: "human PDHK2 (hPDHK2) (Homo sapiens (Human), UniProt Q15119)"
  readout-value: "100 to 1000 nM"
- compound: "C#Cc1cc(C(N)=O)c2c(c1)C(O)(C(F)(F)F)c1ccccc1-2 (stereo not drawn)"
  measurement-target: "human PDHK2 (hPDHK2) (Homo sapiens (Human), UniProt Q15119)"
  readout-value: "100 to 1000 nM"
- compound: "CC(C)(CC(=O)O)n1cc(-c2cc(F)cc3c2-c2ccccc2C3(O)C(F)(F)F)cn1 (single isomer, unassigned)"
  measurement-target: "human PDHK2 (hPDHK2) (Homo sapiens (Human), UniProt Q15119)"
  readout-value: "< 100 nM"
- compound: "CC(C)Cn1cc(-c2cc(CO)c3c(c2)C(O)(C(F)(F)F)c2ccccc2-3)cn1 (stereo not drawn)"
  measurement-target: "human PDHK2 (hPDHK2) (Homo sapiens (Human), UniProt Q15119)"
  readout-value: "< 100 nM"
- compound: "O=C(c1cc(-c2cnn(CCO)c2)c2c(c1)C(O)(C(F)(F)F)c1ccccc1-2)N1CCCC1 (single isomer, unassigned)"
  measurement-target: "human PDHK2 (hPDHK2) (Homo sapiens (Human), UniProt Q15119)"
  readout-value: "< 100 nM"
- compound: "O=C(O)CCCn1cc(-c2cc(CO)cc3c2-c2ccccc2C3(O)C(F)(F)F)cn1 (stereo not drawn)"
  measurement-target: "human PDHK2 (hPDHK2) (Homo sapiens (Human), UniProt Q15119)"
  readout-value: "100 to 1000 nM"
- compound: "Cc1cc(-c2cnn(C(CO)(CO)CO)c2)c2c(c1)[C@@](O)(C(F)(F)F)c1ccccc1-2"
  measurement-target: "human PDHK2 (hPDHK2) (Homo sapiens (Human), UniProt Q15119)"
  readout-value: "< 100 nM"
- compound: "CCc1cc(-c2cnn(C(CO)CO)c2)c2c(c1)C(O)(C(F)(F)F)c1ccccc1-2 (stereo not drawn)"
  measurement-target: "human PDHK2 (hPDHK2) (Homo sapiens (Human), UniProt Q15119)"
  readout-value: "< 100 nM"
